The values you see were collected from patent US20100196385A1.

For each entry below, report its Jagged1/293T X Geo mean value.
Target: T1, human Jagged1 (human, UniProt P78504 34-1218)
T1 construct: whole, on cells
T1 sequence (P78504 34-1218): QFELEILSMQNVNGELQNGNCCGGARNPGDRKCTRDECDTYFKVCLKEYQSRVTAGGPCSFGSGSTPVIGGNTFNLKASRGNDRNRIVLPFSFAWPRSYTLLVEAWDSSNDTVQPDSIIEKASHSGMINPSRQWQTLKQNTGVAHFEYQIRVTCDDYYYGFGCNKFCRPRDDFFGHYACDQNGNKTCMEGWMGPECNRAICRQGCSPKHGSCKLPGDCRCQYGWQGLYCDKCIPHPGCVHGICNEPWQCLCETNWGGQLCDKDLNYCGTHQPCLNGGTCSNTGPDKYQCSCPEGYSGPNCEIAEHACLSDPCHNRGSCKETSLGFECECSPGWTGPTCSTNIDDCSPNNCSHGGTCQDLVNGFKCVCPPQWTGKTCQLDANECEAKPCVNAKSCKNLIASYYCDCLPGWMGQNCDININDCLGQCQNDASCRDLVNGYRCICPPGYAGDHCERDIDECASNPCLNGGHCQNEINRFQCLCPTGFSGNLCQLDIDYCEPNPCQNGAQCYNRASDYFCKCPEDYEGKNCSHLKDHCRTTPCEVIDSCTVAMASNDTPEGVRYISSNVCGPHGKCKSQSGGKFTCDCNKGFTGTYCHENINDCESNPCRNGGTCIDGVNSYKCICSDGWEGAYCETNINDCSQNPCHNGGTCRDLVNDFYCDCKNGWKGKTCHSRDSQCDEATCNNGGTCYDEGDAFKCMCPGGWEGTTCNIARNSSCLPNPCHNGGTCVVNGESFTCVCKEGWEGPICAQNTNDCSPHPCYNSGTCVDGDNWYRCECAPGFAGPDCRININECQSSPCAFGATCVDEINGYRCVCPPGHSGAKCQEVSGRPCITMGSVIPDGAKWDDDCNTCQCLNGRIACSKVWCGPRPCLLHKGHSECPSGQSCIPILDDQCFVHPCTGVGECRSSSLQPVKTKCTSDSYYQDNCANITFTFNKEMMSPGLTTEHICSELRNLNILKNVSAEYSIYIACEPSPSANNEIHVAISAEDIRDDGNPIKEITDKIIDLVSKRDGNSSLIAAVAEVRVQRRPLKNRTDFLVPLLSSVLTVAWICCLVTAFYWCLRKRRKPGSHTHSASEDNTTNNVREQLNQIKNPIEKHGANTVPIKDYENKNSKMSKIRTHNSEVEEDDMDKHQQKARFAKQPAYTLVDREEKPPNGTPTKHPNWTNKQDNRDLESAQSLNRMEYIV
Assay: FACS, 5 µg/ml, 293T cells with human Jagged1
Give bare numbers.

{"columns": ["binder", "reported.endpoint", "numeric.result"],
 "data": [
  ["21H3 (antibody, IgG4, V domains shown, Fully human; used for IgG4 rows and where no isotype is printed; also called 21H3 IgG4) VH: QVQLVQSGAEVKKPGASVKVSCKASGYTFTNYGITWVRQAPGQGPEWMGWISAYNGNTNYAQKLQDRVTVTTDTSTSTAYMELRSLRSDDTAVYYCARDRVPRIPVTTEAFDIWGQGTMVTVSS VL: QSVLTQPPSASGTPGQRVTISCSGSSSNIGSYFVYWYQQLPGTAPKLLIYRNNQRPSGVPDRFSGSESGTSASLAISGLRSEDEADYYCAAWDDSLSGHWVFGGGTRLTVL", "Jagged1/293T X Geo mean", 15.5]
]}

Give Jagged1/293T X Geo mean for each of the items listed below.
1. 17F3 (antibody, IgG2, V domains shown, Fully human; also used where no isotype is printed) VH: QVQLVQSGAEVKKPGASVKVSCKASGYTFTNYGISWVRQAPGQGLEWMGWINAYNGNTNYAQNLQGRVTMTTDTSTNTAYMELRSLRSDDTAVYYCARVAPAAFFDYWDQGTLVTVSS VL: SYELTQPPSVSVSPGQTASITCSGDKLGDKYVCWYQQKPGQSPVLVIYQDNKRPSGIPERFSGSNSGNTATLIISGTQAMDEADYYCQAWDSSTVFGGGTKLTVL
2. 4B4 (antibody, IgG4, V domains shown, Fully human; used for IgG4 rows and where no isotype is printed; also called 4B4 IgG4; 4B4.1) VH: QVLLIQSGAEVKKPGASVQVSCKASGYTFTNYGVIWVRQAPGQGLEYMGWISAYNGNTNYAQKLQDRVTMTSDTSTTTAYMELRSLRSDDTAVYYCARELGSSFDYWGQGTLVTVSS VL: SYELTQPPSVSVSPGQTARITCSGDALPKKYAYWYQQKSGQAPVLVIYEDIKRPSGIPERFSGSSSGTMATLTISGAQVEDEADYYCFSTDNSGDHSVFGGGTKLTVL
3. 12A1 (antibody, IgG4, V domains shown, Fully human; also used where no isotype is printed) VH: QVQLVQSGAEVKRPGASVKVSCKASGYTFTSYGITWVRQAPGQGLEYMGWISTYNGNTDYAQKFQGRVTMTADISTSTAYMELRSLRSDDTAVYYCARERGSYFDYWGQGTLVTVSS VL: SYELTQPPSVSVSPGQTARITCSGDTLPKKYAYWYQQKSGQAPVLVIYEDIKRPSGIPERFSGSSSGTMATLTISGAQVEDEADYYCFSTDSGGNHKFGGGTKLTVL
4. 1E4 (antibody, IgG2, V domains shown, Fully human; also used where no isotype is printed) VH: QVQLVESGGGVVQPGRSLRLSCAASGFTFSSYGMHWVRQAPGKGLEWVAVTWYDGSNKYYADSVKGRFTISRDNSKNTLYLQMNSLRAEDTAVYYCARENCSSTSCYYTVTTDYYGMDVWGQGTTVTVSS VL: EIVLTQSPGTLSLSPGERATLSCRASQRVSSSYLTWYQQKPGQAPRLLIYGASIRATGIPDRFSGSGSGTDFTLTITRLEPEDFAVYFCQQCYTSPITFGQGTRLDIK

A)
1. 16.3
2. 16.8
3. 14.4
4. 16.9
